Assay Info: protease stability score; higher = more stable; yeast display proteolysis, trypsin and chymotrypsin;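 also: log10 excess protease needed over predicted unfolded state with 0 meaning unfolded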
Assay Endpoint: protease stability score

Residue String	Assay Endpoint	Reading
DEEELSHFLDVVRTGDFHEMAKMVDPNARINVGDKRVHGREDAETLIKEIQKRADHVEVDSYSIEGDKVRVLMRVNVNGVEVVFILVVQLNNGRIVHRQVDVTNEELEKQVRHANS	protease stability score	0.659
DENDAKELRHFIEVMVRGDPSKLMQLADKDASFHIGEKQVHGREQISSEAEQRNREIKYEIKDLKVTVHGDKARVEAEMVKNHNGKPEHYRYVVTASLRNGKIKEVTVNKRQ	protease stability score	0.875
DERDQVKRAKEYLHAFNQGDPDEADKNADPNAKVDVGDHRYHGREEFDKAVKTFKDQVDHIEVKDVKAQGNHASARVTADVNGHTLDMIITVELHNGKVKSYVVKKK	protease stability score	-0.175
DEDAARSAEHLQRHNDFDEFARRADENVRLRVGDFRFQGREQVIRFMKRFTDRFDHVQFRRMDFHGNRMQAEFVAEVNGKTVKMKESFQIDNGRVHSVTQEATSEEDQEELKRLID	protease stability score	0.254
DEHRRAEEAAKRAMEIWKTGNERDAEDLADKNVSIDYGDKKYHGRHQIIKFFQELREDVDHVDLKVNDMDVKPGRAVANLRYVLNNDGRNRHDQHRMTLKLEGDKVYLKKIQQG	protease stability score	-0.108
DERDQELFQNFIKALQTNNPDQVMEQVDPNAEIQYGDRVVRGRHQLRREVEQEHHEMRNDIKVRSIRANNGHVEATFDVVFEINGKPVENRVSVILEMRDGRAKHIEWRIPSEVKEQLKG	protease stability score	0.059

* * *

Assay Info: protease stability score; higher = more stable; yeast display proteolysis, trypsin and chymotrypsin;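 also: log10 excess protease needed over predicted unfolded state with 0 meaning unfolded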

Residue String	protease stability score
DDELRHVAERFVQALDEGDPNELKEMADPNARMQVGDKYITGMETFVKHERKKMEKIRIEVVDFKANVNGDKVQVHFDVRFEVNGQPRRYSYVVIFQFRNGRISHVNVQVDPRQLKKNES	1.04
DEQAMSVAEELISALNTGNEDQVDRLMDPNAHLQVGDKRLHGREEVRRHVKTLKDQARFDMKVDSLRVQGEKVRLDATYTFEVNGRPREDRVIIDMTLTNGTVKRIRFNFDPDDWRKMEG	1.04
DEDARKQAQRWITNLNNGNEKEVSKQFDPNARMDVGNRDVHGTEQLLQKLRTRLKQARQSIELRDIDRQGDNLQLDVRMEFVHNGQPDDVRFTVQMNYHNGKIKRANWRIPEEDQKKLER	0.165
DEEHAKRINENIKHGNWDELVKQFDENAKLVIGDKEYHGREEIKKAMDLFKKHADHFEIKSYDNQGEKMSATYVIQVNGKRATVKMRVTFQGDKVKRYELHATSEHNERILKEAIE	1.12
DETEIRLFHQFLRAIETNDEERAQQLADEDARYRYGNKEIDGMTQFQEDMDDKHKEARYSYSIDSVHDEPNRVVVEARAMVKINGKPTTYQVELHAHFHNGRMKKFTASVPEETLQSIRS	0.054
DEDDVQHAQKLVEENDEDKLKRMFPPDARAHIGDKEVHGMDKWADILKTLHHKADSVHFKHVSVSGNSVNVNFVMVVDGQSIEFVLVIDVHNGRARRLRIDFRNEEQQKLFEKLIS	1.3
DHQASEKLSQLWKALNTGNPEQFSKNADPHVRHHVGDTSIQGREQFNEQIKREQKEMRVQIQVQSIHVRGDKIRVRAVYTFHINGQPRKDTFVAKFVVKNGRIKKASIRIDPRKVKERNS	0.11
DEDQAKEQVDNARKVINQGNFSEAVKTADPNVKAAYGEKRLEGRQVLHTYQEVFQRRVDHVHVRRVDLKGEKATIKAELTINGRTTTMRMVVEVSNGRLKNFYVKYK	0.145
DEEQAKKMEHDAKNNNFEKMAEQADPNATAQYGDHRVRGRHEVIDLITHWIEKIDRIEVDSIRVHNGRLEMHFTFEVDGVQVDVVMKAELQNGSLKVLVVTATSEEQQKRLKQAEG	0.234
DRNHVKEIAKEILKAMETNDEKRMSELMDKNVRLVYGDTEVHGRERVLTTIKHELESIDHVNFHDMSVDGDKIHVVYHVQKNGDRRQVEVRYVISNGKIQEVQINTR	0.623
DEDLLKQLHTYLRAHETGDRSRLRKLMDPNAEVRIGNHELHGREEILTQQVEEAHKITQYFEIDSVEVRPNSIKVKAHVSMNVNGQPFRTEVEYDVRIRNGRIQEITYRLPEEFLREVNR	-0.229
DDHKVEHVNRLFETNNPDKLAKNVDPNADNQVGDKRYHGRQKIHTFLKNMYTRVDHVDIHRISVNGNRLQIDATYDIDGRRFYADMRFRLHNGRIKEVRVRFTNEEQDKVVKEAVK	0.985
DPKRVRQVAKEVAKAFLNGDKDKVKKYGDPNVKAKVLDEETQGVEQIMRELEKFMKLGVQYETKEVREEGDYVEVHTEYRDGDTTAKMTVIYKARDGKVEHLEVHYDRDARKIFRKG	0.144
DSHLEHKAHEWVKAVNENDPDRLVQLMDKDVKIDVGDKKFSGRENYATEVKKEQDEARVEWKDVKLSADNGKLELQADVVRRHNGQPQRWKVENIYTDKNGVAKYLTNKSKP	-0.423
DEHRLATEAIDQFERALQSGNPDEITKMADPDARVHVGDTQLRGREELQRYMHEVRQRHDQVEVHVHRISIDGNKINIHFVLNLNHNGQTDSQSYEMTARVQNGSAVVKEIIQQ	-0.296
DDSNNEIVKHMLEALHTGDPDQMSRLVDPNVRVNVGNKEVHGREQQREEVEKIKRDMRFEADLDDYHVHGEHLEFKVTYKAQINGKPYHFSADLNLTFHNGKLQSESARMDQHELEKLDG	0.029
DERKKVEDVARHWVEAFKEGDKDRLTSLMDENVTVKVGDKQVHGSEELLEDMTNKIKQHDHVDAKILSVTFHGDEAEVDVEVRLNHNGKNRHDRYVMVMRVHNGTLRLKKLTQK	1.24
DEKNDRVLRRVMEAIHRGDPDKIHNQLDPNVKAEVGDKRFHGMEHIVEQVKRNWDNMRMRMKDVTVEDHNGQANAKVTYEVTENGQPKRAHVTVQAHAHDGRLTSVTYDTHE	-0.371
DDQERREIAKNFQRGNEQVVKKLVDPNARIRVGDKTLHGRDQMSHVFKRLQEQVDHIDVKHYTISGEHIVIDAIFVINGKNIRMVIVVQVENGRVKRVDFKYTNEEQKKQLERDLS	0.004
DEDDQRRKAETLVRQISTGNPDDLKKMVDPNVKVKVGDKEYHGREEMAKDIKHIEDAVDHLEVKSVDAHNGRIDIVIVMHINGTRVHMRVEFQLNNGKVKSAERRYTDQDQKNTFER	-0.39
DKELRKHLTEFVKNYQHGNERELNKYADPNVKFRYGDKTLNGREEWMKHIQRLKKEIRFEIDDFRIRARNGELDMTFDFKQEVNGRPKSDRAQMNVVMHNGKIVEIDFRVDPTFEKEVKG	0.376
DEEEKAEHVADEVRHALKRGDEDRLMNLMDENVRVEVGDKTIHGREEVRKELHRISKDFDHVDAKVKSIKVTNGNVIIIMDVKQNVNGRTRRFEVSMILDVKGDKARIQHIKND	1.11

* * *

Assay Info: protease stability score; higher = more stable; yeast display proteolysis, trypsin and chymotrypsin;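 also: log10 excess protease needed over predicted unfolded state with 0 meaning unfolded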
We'd kindly ask you to apply these protease stability score classes: L: < 0.1; M: ≥ 0.1 and < 0.4; H: ≥ 0.4

Residue String	Assigned Class
EDDRQRKFAKHANKVMETGDPREMEKLADENVRVVVGEKDVHGRERAQEWAKELSDRVDQIRIKDVDVDGNKVVIDLIVDHNGRQSTVTVDIEFHNGRAKSVTMHEK	L
DEERAAHNALRALEAMLTGDEKKADELADKDVRVNVGDRVYDGDEKMQKFVRELRKRYDHFHFRTYSHDGDKVKANVILNVNGRNVEIIFYLHAHNGKLKSVRVEVRNPELLKNLTS	H
DEDREKEVVDILRDGNPDDAREMADENVTVRVGNKVIHGREEYHRFIKRMQDQADHRHIDSVHHRPGRVRIQFRAVVDGQKFSAQMTVKVENGRVKSAQLDATDESVKKILEHIFG	H
EEHLKQTFKEYMENYRTGNEEQLHSMVDEEAKFSYGDKKIHGRTEAIKQLVRRREEMRWDVQIKDMEVHNGRIEVDARVRFKHNGQPDDQKVVFRAVIHNGRFKMISEQYQP	M
EEERDKFAKILLHAILTGNEEQFKRLADPNATFNIGDRKIHGMERYTKQMKQEVDRIKIKVESVKISVSGNKITIDMVATFNVNGQPVTIRFVLDVTIKNGRVSELVLRVSDEQLQKMRR	M
DEKDETVVRKWLEAQHTGNPEEAKHQVDKNVDIRVGDHKVTGRHQIMHNLEQRKKSARFELQLTHLSASNGKVTIQIDVRINYNGRPFTDTLHATAKIKNGQLHSFSVDVDEEYLKKVKS	L
DEDEKVRQLVRDLIEALRTNDQKRWVELADKDARLKVGDKSYHGREELAKQMKKLREHVDHVTMRVKRVEVHNGRISVDATLTYDINGKKNHQTVKMQFRRHNGQIRLVQIEME	M
DEDFWRRLVTLMQKNDFDQLARLVDPNAEVTVGDKTYEGRENIQKMWHKLKKQFDHYEIKTYRVKGDKLDMDYVFVVNGQQVRAKVEMRVHNGRLVELRFDARNPDELDTVRRILS	H
DDDKERKARKFAEIYMHGDWRKAHQYADPNVRIKVGDKTFQGRESLAKLVESLRKEQRLEMKRVEARVTNGRINLHLRFVVQKNGTPSHRRIHFDARMHNGKLKEMTENDKR	M
EEEDLKQVRKFLDAERDNDEDRLRELVDPNARFKVGDKTYHGMEDYVREVVHRMRQMQFEVDSIDNTVEGDHVRMRIHRTYRHNGKPSTKVYVLKARLHNGKIKHMQQDDDK	M
DEEEHFRKWVHEFIKILETGDPDQAKKMMDPNVRETVGDKSLHGHDQMVREIEKRRESIDHVNFDIKDYRIQGNHFVLDLKVNEVHNGKEITRRLEVDASTQGDKLYVNEIRLS	L
